# TARGET: hNPFF1 (Homo sapiens, UniProt Q9GZQ6)
# Construct: expressed in transfected cells
# Sequence (Q9GZQ6 whole entry): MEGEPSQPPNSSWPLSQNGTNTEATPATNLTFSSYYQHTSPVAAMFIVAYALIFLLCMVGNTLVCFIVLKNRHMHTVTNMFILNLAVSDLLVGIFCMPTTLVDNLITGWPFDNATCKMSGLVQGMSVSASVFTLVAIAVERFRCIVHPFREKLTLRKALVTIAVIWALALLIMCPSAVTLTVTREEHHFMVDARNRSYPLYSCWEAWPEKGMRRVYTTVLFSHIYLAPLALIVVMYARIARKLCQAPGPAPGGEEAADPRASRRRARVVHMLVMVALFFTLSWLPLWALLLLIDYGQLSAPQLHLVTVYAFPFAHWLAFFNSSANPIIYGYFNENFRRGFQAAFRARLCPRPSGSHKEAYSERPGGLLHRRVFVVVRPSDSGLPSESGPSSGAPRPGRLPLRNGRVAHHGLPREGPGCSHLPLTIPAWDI
# ASSAY_NOTES: Binding affinity at cloned recombinant human NPFF1 receptor
pKi: −log10 of the molar value.

COMPOUND_STRUCTURE_STRING: CCCCCc1ccc2nc(NC(=N)N)nc(C)c2c1
pKi: 7.30

COMPOUND_STRUCTURE_STRING: CCc1ccc2nc(NC(=N)N)cc(C)c2c1
pKi: 7.30

COMPOUND_STRUCTURE_STRING: CCCCCc1ccc2nc(NC(=N)N)cc(C)c2c1
pKi: 7.40

COMPOUND_STRUCTURE_STRING: COc1ccc2nc(NC(=N)N)cc(C)c2c1
pKi: 6.95

COMPOUND_STRUCTURE_STRING: CCc1cc(NC(=N)N)nc2cc(C)ccc12
pKi: 7.55

COMPOUND_STRUCTURE_STRING: Cc1cc(C)c2c(C)cc(NC(=N)N)nc2c1
pKi: 7.09

----------
# TARGET: rNPFF2 (Rattus norvegicus)
# Construct: expressed in transfected cells
# Sequence (Q9EQD2 whole entry): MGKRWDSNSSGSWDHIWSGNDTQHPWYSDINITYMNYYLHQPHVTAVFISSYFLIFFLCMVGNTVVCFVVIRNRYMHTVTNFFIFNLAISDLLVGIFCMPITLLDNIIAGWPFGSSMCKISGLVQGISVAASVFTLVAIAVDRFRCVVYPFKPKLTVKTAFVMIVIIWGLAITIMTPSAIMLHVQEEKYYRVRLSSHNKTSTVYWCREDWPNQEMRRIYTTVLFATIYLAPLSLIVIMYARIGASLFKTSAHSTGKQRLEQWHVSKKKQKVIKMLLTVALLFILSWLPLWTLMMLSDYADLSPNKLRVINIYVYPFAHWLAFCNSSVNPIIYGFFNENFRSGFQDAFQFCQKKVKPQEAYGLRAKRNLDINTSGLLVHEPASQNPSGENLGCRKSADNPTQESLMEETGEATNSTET
# ASSAY_NOTES: Functional assay (agonist potency, intrinsic activity) at cloned rat NPFF2 receptor
# Type: cell-based
# RECORDED_CONDITIONS: percent of maximum response elicited by neuropeptide FF; rat NPFF2
Below is a list of entries, each paired with its recorded rNPFF2 IA (intrinsic activity) value.
METRIC: rNPFF2 IA (intrinsic activity) (% NPFF)

COMPOUND: Cc1nc(NC(=N)N)nc2cc(OCc3ccccc3)ccc12
VALUE_MEASURED: 22

COMPOUND: CCCCc1ccc2nc(NC(=N)N)cc(C)c2c1
VALUE_MEASURED: 82

COMPOUND: Cc1cc(NC(=N)N)nc2ccc(Cl)cc12
VALUE_MEASURED: 61

COMPOUND: Cc1cc(NC(=N)N)nc2cc(F)ccc12
VALUE_MEASURED: 17

COMPOUND: Cc1nc(NC(=N)N)nc2cc(C(C)O)ccc12 (stereo not drawn)
VALUE_MEASURED: 52

COMPOUND: Cc1nc(NC(=N)N)nc2ccc(-c3ccccc3)cc12
VALUE_MEASURED: 22

COMPOUND: CCCCCCCCc1ccc2nc(NC(=N)N)nc(C)c2c1
VALUE_MEASURED: 22

COMPOUND: Cc1nc(NC(=N)N)nc2ccc(Cl)cc12
VALUE_MEASURED: 52

COMPOUND: Cc1cc(NC(=N)N)nc2ccc3ccccc3c12
VALUE_MEASURED: 70

COMPOUND: CCc1ccc2nc(NC(=N)N)nc(C)c2c1
VALUE_MEASURED: 83

COMPOUND: Cc1nc(NC(=N)N)nc2ccc(Oc3ccccc3)cc12
VALUE_MEASURED: 93

COMPOUND: CCc1ccc2nc(NC(=N)N)cc(C)c2c1
VALUE_MEASURED: 84

COMPOUND: CCCc1ccc2nc(NC(=N)N)nc(C)c2c1
VALUE_MEASURED: 85

COMPOUND: Cc1nc(NC(=N)N)nc2ccc(Br)cc12
VALUE_MEASURED: 19

COMPOUND: Cc1nc(NC(=N)N)nc2ccc(CCCC(C)O)cc12 (stereo not drawn)
VALUE_MEASURED: 101

COMPOUND: Cc1nc(NC(=N)N)nc2ccc(OC(F)(F)F)cc12
VALUE_MEASURED: 85

COMPOUND: COc1cc2c(C)nc(NC(=N)N)nc2cc1C
VALUE_MEASURED: 74

COMPOUND: CCCCCOc1ccc2nc(NC(=N)N)nc(C)c2c1
VALUE_MEASURED: 66

COMPOUND: Cc1nc(NC(=N)N)nc2ccc(Cc3ccccc3)cc12
VALUE_MEASURED: 89

COMPOUND: Cc1nc(NC(=N)N)nc2ccc(OCc3ccccc3)cc12
VALUE_MEASURED: 79
